Field: IC50. Provide a value for each of the molecules that follow.
- SYSTEM_NAME: human V2 receptor (Homo sapiens, UniProt P30518)
- Sequence (P30518 whole entry): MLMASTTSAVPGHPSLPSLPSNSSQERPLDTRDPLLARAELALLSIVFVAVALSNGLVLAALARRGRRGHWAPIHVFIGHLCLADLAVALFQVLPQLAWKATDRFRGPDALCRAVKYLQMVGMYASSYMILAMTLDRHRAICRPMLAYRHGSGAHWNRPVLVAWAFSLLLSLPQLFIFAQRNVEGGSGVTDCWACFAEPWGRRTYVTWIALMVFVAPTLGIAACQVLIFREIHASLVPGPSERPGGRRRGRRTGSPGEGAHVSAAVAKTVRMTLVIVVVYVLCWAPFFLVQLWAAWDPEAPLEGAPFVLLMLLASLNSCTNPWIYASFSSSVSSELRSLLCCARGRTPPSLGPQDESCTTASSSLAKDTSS
- ASSAY: In-vitro binding assay, 3H-arginine-8-vasopressin, V2 membranes
- REPORTED_CONDITIONS: V2 (second value of V1a/V2)
- Description: Assay buffer is 50 mM Tris-Cl, 5 mM MgCl2, 0.1% BSA (pH 7.5) containing 5 μg/ml of aprotinin, leupeptin, pepstatin, 50 μg/ml bacitracin, and 1 mM Pefabloc (4-(2-Aminoethyl)-benzenesulfonyl fluoride, hydrochloride manufactured by Roche Diagnostics Corporation, Indianapolis, Ind. and distributed by Boehringer Mannheim). […] The top of the plate is sealed, and the plate is counted. Non-specific binding is determined by the addition of 1.25 μM arginine-8-vasopressin in those wells. % Inh. is calculated […]
Write the quantity with the unit trailing the number.

MOLECULE | IC50
COc1cc(C(=O)N2CC[C@]3(C=C(C(=O)O)CC3)Cc3ccccc32)ccc1NC(=O)c1cc(F)ccc1Cl | 30 nM
O=C(O)C1=C[C@@]2(CC1)CCN(C(=O)c1ccc(NC(=O)c3cc(F)ccc3Cl)cc1)c1ccccc1C2 [reference compound] | 53 nM
CCOc1cc(C(=O)N2CC[C@]3(C=C(C(=O)O)CC3)Cc3ccccc32)ccc1NC(=O)c1cc(F)ccc1Cl | 71 nM

# context switch: different molecule, same IC50
Inquiry: # IC50 lookup, item CN(C)CCNC(=O)C1=CC2(CC1)CCN(C(=O)c1ccc(NC(=O)c3ccccc3-c3ccccc3)cc1)c1ccccc1C2 (racemic) [A, reference compound]
Reply text: 11 nM
